test: Cmax in Sprague-Dawley rat at 5 mg/kg, po administered as single dose by LC-MS/MS analysis; assay type: ADME, organism-based; set-up: dose 5 mg/kg, route oral; conditions: in vivo
READOUT TYPE: Cmax (ng/mL)

[1] CCC1(C)C(C)=Nc2c(F)cc(-c3nc(Nc4ccc(N5CCNCC5)cn4)ncc3F)cc21 (centres undefined)
[2] CC1=Nc2c(F)cc(-c3nc(Nc4ccc(N5CCNCC5)cn4)ncc3F)cc2C12CCCC2
Q) # compare Cmax for 1 vs 2 ; return the one with the smaller value // respond with label for picked entry
A) 1
(1: 18 ng/mL, 2: 56.6 ng/mL)

[P] CCC1(CC)C(C)=Nc2c(F)cc(-c3nc(Nc4ccc(N5CCNCC5)cn4)ncc3F)cc21
[Q] CC1=Nc2ccc(-c3nc(Nc4ccc(N5CCNCC5)cn4)ncc3F)cc2C12CCCC2
[R] CCC1(C)C(C)=Nc2c(F)cc(-c3nc(Nc4ccc(C5CCN(C)CC5)cn4)ncc3F)cc21 (centres undefined)
[S] CCN1CCC(c2ccc(Nc3ncc(F)c(-c4cc(F)c5c(c4)C4(CCCC4)C(C)=N5)n3)nc2)CC1
[T] CC1=Nc2c(F)cc(-c3nc(Nc4ccc(N5CCN(C)CC5)cn4)ncc3F)cc2C12CCCC2
Q) With regard to Cmax, arrange the entries in ascending order, please. When ranking, write the labels in the order the request describes.
A) P, R, T, Q, S

[A] CC1=Nc2ccc(-c3nc(Nc4ccc(N5CCN(C)CC5)cn4)ncc3F)cc2C12CCCC2
[B] CC1=Nc2c(F)cc(-c3nc(Nc4ccc(C5CCNCC5)cn4)ncc3F)cc2C12CCCC2
Q) # compare Cmax for A vs B ; return the one with the smaller value // respond with label for picked entry
A) A
(A: 28.9 ng/mL, B: 62.1 ng/mL)

====

test: Unbound brain to plasma concentration ratio in mouse at 30 mg/kg, po; type: ADME, organism-based; settings: read-out: K(p,uu,brain)
READOUT TYPE: Kp uu
Kindly provide the number alone.

For record `CCN1CCN(Cc2ccc(Nc3ncc(F)c(-c4cc(F)c5nc(C)n(C(C)C)c5c4)n3)nc2)CC1` the listed Kp uu is 0.03

====

experiment: Intrinsic clearance in CD-1 mouse liver microsomes at 10 uM preincubated for 5 mins followed by NADP addition by LC-MS/MS analysis; assay type: ADME, microsome; details: read-out: CLH
READOUT TYPE: microsomal CLint at 10 µM (µL/min/mg)

[I] CC1=Nc2c(F)cc(-c3nc(Nc4ccc(N5CCNCC5)cn4)ncc3F)cc2C12CCCC2
[II] CCN1CCN(Cc2ccc(Nc3ncc(F)c(-c4cc(F)c5c(c4)C4(CCCC4)C(C)=N5)n3)nc2)CC1
Q) # compare microsomal CLint at 10 µM for I vs II ; return the one with the smaller value // respond with label for picked entry
A) I

====

biological target: Cyclin-dependent kinase 4/cyclin D1 (Homo sapiens, UniProt P11802); test: Inhibition of CDK4/Cyclin-D1 (unknown origin) using histone-H1 as substrate after 90 mins by ADP-Glo assay
Sequence (P11802 whole entry): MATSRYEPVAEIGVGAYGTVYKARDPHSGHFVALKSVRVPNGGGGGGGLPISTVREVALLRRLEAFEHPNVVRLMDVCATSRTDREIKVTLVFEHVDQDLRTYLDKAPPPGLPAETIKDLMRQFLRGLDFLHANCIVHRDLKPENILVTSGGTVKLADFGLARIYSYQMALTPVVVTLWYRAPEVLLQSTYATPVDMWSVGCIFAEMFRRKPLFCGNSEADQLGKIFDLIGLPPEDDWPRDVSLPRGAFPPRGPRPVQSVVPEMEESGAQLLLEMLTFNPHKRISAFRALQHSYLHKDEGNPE
Sequence (P24385 whole entry, further chain): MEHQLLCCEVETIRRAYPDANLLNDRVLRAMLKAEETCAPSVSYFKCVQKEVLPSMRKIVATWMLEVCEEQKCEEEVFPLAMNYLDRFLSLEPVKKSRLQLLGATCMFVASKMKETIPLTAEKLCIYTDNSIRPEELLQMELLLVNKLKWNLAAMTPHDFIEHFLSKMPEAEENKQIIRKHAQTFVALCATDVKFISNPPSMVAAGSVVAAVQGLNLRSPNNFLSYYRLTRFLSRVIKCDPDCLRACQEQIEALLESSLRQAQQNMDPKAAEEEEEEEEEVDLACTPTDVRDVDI
READOUT TYPE: IC50 (nM)

Here are 6 molecules together with their reported answers.
[
  {
    "MOLECULE": "CCN1CCC(c2ccc(Nc3ncc(F)c(-c4cc(F)c5c(c4)C4(CCCC4)C(C)=N5)n3)nc2)CC1",
    "IC50 / nM": 6
  },
  {
    "MOLECULE": "CCN1CCN(Cc2ccc(Nc3ncc(F)c(-c4ccc5c(c4)C4(CCCC4)C(C)=N5)n3)nc2)CC1",
    "IC50 / nM": 13
  },
  {
    "MOLECULE": "CC1=Nc2c(F)cc(-c3nc(Nc4ccc(C5CCNCC5)cn4)ncc3F)cc2C12CCCC2",
    "IC50 / nM": 8
  },
  {
    "MOLECULE": "CCN1CCN(c2ccc(Nc3ncc(F)c(-c4cc(F)c5c(c4)C4(CCCC4)C(C)=N5)n3)nc2)CC1",
    "IC50 / nM": 18
  },
  {
    "MOLECULE": "CC1=Nc2c(F)cc(-c3nc(Nc4ccc(N5CCN(CCO)CC5)cn4)ncc3F)cc2C12CCCC2",
    "IC50 / nM": 17
  },
  {
    "MOLECULE": "CC1=Nc2c(F)cc(-c3nc(Nc4ccc(C5CCN(C)CC5)cn4)ncc3F)cc2C12CCCC2 [CROZBACICLIB]",
    "IC50 / nM": 3
  }
]

[1] CCC1(C)C(C)=Nc2c(F)cc(-c3nc(Nc4ccc(C5CCN(C)CC5)cn4)ncc3F)cc21 (stereo not drawn)
[2] CC1=Nc2ccc(-c3nc(Nc4ccc(C5CCN(C)CC5)cn4)ncc3F)cc2C12CCCC2
Q) // which entry has the larger IC50 value, 1 or 2 ? // respond with label for picked entry
A) 1
(1: 16 nM, 2: 8 nM)

====

assay: Tmax in CD-1 mouse brain at 10 mg/kg, po administered as single dose by LC-MS/MS analysis; assay type: ADME, organism-based
READOUT TYPE: Tmax (h)
Return type: number; implicit unit h.

For record `CC1=Nc2c(F)cc(-c3nc(Nc4ccc(C5CCN(C)CC5)cn4)ncc3F)cc2C12CCCC2` the listed Tmax is 2

====

molecular target: CDK6/cyclin D3 (Homo sapiens); test: Inhibition of CDK6/Cyclin-D3 (unknown origin) using histoneH1 as substrate after 90 mins by ADP-Glo assay
Sequence (P30281 whole entry): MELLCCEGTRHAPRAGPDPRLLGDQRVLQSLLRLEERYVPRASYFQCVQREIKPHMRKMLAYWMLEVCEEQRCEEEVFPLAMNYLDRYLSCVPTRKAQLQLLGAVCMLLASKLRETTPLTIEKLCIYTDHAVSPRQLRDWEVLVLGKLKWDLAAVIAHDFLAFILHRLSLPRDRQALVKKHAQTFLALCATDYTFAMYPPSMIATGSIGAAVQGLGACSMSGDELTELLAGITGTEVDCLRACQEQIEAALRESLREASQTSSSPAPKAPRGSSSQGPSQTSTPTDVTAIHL
Sequence (Q00534 whole entry): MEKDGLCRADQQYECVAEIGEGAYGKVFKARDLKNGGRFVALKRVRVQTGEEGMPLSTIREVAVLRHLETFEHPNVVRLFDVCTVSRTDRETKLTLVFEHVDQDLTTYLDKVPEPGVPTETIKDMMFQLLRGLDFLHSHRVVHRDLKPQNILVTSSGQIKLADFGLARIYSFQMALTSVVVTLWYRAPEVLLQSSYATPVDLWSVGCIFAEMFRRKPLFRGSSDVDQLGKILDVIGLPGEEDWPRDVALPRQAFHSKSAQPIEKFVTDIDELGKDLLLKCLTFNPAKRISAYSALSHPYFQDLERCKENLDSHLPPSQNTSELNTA
READOUT TYPE: IC50 (nM)

Here are 6 compounds together with their reported answers.
[
  {
    "COMPOUND": "CCN1CCN(Cc2ccc(Nc3ncc(F)c(-c4cc(F)c5c(c4)C4(CCCC4)C(C)=N5)n3)nc2)CC1",
    "IC50, nM": 2
  },
  {
    "COMPOUND": "CC1=Nc2c(F)cc(-c3nc(Nc4ccc(N5CCN(CCO)CC5)cn4)ncc3F)cc2C12CCCC2",
    "IC50, nM": 6
  },
  {
    "COMPOUND": "CCC1(C)C(C)=Nc2c(F)cc(-c3nc(Nc4ccc(N5CCNCC5)cn4)ncc3F)cc21 (stereo not drawn)",
    "IC50, nM": 3
  },
  {
    "COMPOUND": "CCC1(C)C(C)=Nc2c(F)cc(-c3nc(Nc4ccc(C5CCN(C)CC5)cn4)ncc3F)cc21 (stereo not drawn)",
    "IC50, nM": 9
  },
  {
    "COMPOUND": "CC1=Nc2c(F)cc(-c3nc(Nc4ccc(C5CCNCC5)cn4)ncc3F)cc2C12CCCC2",
    "IC50, nM": 0.4
  },
  {
    "COMPOUND": "CC1=Nc2c(F)cc(-c3nc(Nc4ccc(C5CCN(C)CC5)cn4)ncc3F)cc2C12CCCC2",
    "IC50, nM": 1
  }
]

[I] CCN1CCN(c2ccc(Nc3ncc(F)c(-c4ccc5c(c4)C(C)(CC)C(C)=N5)n3)nc2)CC1 (stereo not drawn)
[II] CCC1(C)C(C)=Nc2c(F)cc(-c3nc(Nc4ccc(N5CCN(C)CC5)cn4)ncc3F)cc21 (stereo not drawn)
[III] CCN1CCC(c2ccc(Nc3ncc(F)c(-c4cc(F)c5c(c4)C(C)(CC)C(C)=N5)n3)nc2)CC1 (stereo not drawn)
Q) With regard to IC50, arrange the entries in ascending order, please. When ranking, write the labels in the order the request describes.
A) II, I, III
(II: 1 nM, I: 4 nM, III: 12 nM)

[I] CC1=Nc2c(F)cc(-c3nc(Nc4ccc(N5CCN(C(C)C)CC5)cn4)ncc3F)cc2C12CCCC2
[II] CCC1(C)C(C)=Nc2ccc(-c3nc(Nc4ccc(C5CCNCC5)cn4)ncc3F)cc21 (stereo not drawn)
Q) // which entry has the larger IC50 value, I or II ? // respond with label for picked entry
A) II

[P] CCC1(C)C(C)=Nc2ccc(-c3nc(Nc4ccc(C5CCN(C)CC5)cn4)ncc3F)cc21 (stereo not drawn)
[Q] CC1=Nc2ccc(-c3nc(Nc4ccc(C5CCN(C)CC5)cn4)ncc3F)cc2C12CCCC2
Q) // which entry has the larger IC50 value, P or Q ? // respond with label for picked entry
A) P
(P: 9 nM, Q: 4 nM)

[P] CC1=Nc2c(F)cc(-c3nc(Nc4ccc(N5CCNCC5)cn4)ncc3F)cc2C12CCCC2
[Q] CC1=Nc2ccc(-c3nc(Nc4ccc(N5CCN(C)CC5)cn4)ncc3F)cc2C12CCCC2
Q) // which entry has the larger IC50 value, P or Q ? // respond with label for picked entry
A) Q
(Q: 9 nM, P: 6 nM)

[1] CCC1(C)C(C)=Nc2c(F)cc(-c3nc(Nc4ccc(C5CCNCC5)cn4)ncc3F)cc21 (stereo not drawn)
[2] CC1=Nc2ccc(-c3nc(Nc4ccc(N5CCNCC5)cn4)ncc3F)cc2C12CCCC2
Q) // which entry has the larger IC50 value, 1 or 2 ? // respond with label for picked entry
A) 1
(1: 6 nM, 2: 4 nM)
